System: XF 498 CNS
Experiment: NCI tumour cell line growth inhibition, 48 h
Attribute: TGI

{"columns": ["compound", "test-system", "TGI"],
 "data": [
  ["CC1=NN(c2ccccc2)C(=O)C12[C@H](c1ccccc1)C2(C#N)C#N (stereo partly specified)", "XF 498 CNS", "7.22 µM"],
  ["O=C(O)c1c2c(cc3c(=O)c4ccccc4[nH]c13)CCCC2", "XF 498 CNS", "> 100 µM"],
  ["CCCC(O)c1cn(-c2cccc(S(=O)(=O)O)c2)nn1 (stereo unspecified)", "XF 498 CNS", "> 100 µM"],
  ["Brc1cc(C2OCCCO2)ccc1OCc1ccccc1", "XF 498 CNS", "> 100 µM"],
  ["Cc1ccc(N2C(=O)C3CSCN3C2=O)cc1 (stereo unspecified)", "XF 498 CNS", "> 100 µM"],
  ["COc1cc(Cc2c(C)cc(OC)c3[nH]c4ccccc4c23)cc2c1[nH]c1ccccc12", "XF 498 CNS", "> 25 µM"],
  ["CC1=C(CO)C(=O)O[C@@H]([C@@H](C)[C@H]2CC[C@H]3[C@@H]4C[C@H]5O[C@]56[C@@H](O)C=CC(=O)[C@]6(C)[C@H]4CC[C@]23C)C1", "XF 498 CNS", "2.82 µM"],
  ["COc1ccc(Br)c(CN2CCc3ccccc32)c1OS(=O)(=O)c1ccc(C)cc1", "XF 498 CNS", "92 µM"],
  ["CN1CCN=C1c1nnn(-c2ccc([N+](=O)[O-])cc2)c1-c1ccccc1", "XF 498 CNS", "> 100 µM"],
  ["C/C=C(\\NC(=O)C(CCCCN)NC(=O)C(C)NC(=O)C1CSC(C)C(NC(=O)C2CSCC(NC(=O)C(C)NC(=O)C(N)C(C)CC)C(=O)NC(CCCCN)C(=O)NC(Cc3ccccc3)C(=O)NC(CC(C)C)C(=O)N2)C(=O)N2CCCC2C(=O)NCC(=O)N1)C(=O)NCC(=O)NC1CSCC2NC(=O)C(Cc3ccc(O)cc3)NC(=O)C(CSC=CNC2=O)NC(=O)C(CC(N)=O)NC(=O)C(Cc2ccccc2)NC1=O (stereo unspecified)", "XF 498 CNS", "> 100 µM"],
  ["COc1cc2c(cc1OC)C(C(CBr)CBr)N(C1CCCC1)CC2 (stereo unspecified)", "XF 498 CNS", "> 100 µM"]
]}

---

Entries and their TGI
System: HT29 colon
Experiment: NCI tumour cell line growth inhibition, 48 h

{"columns": ["compound", "test-system", "value-comparator", "TGI, µM"],
 "data": [
  ["Cc1ccc(N2C(=O)C3CSCN3C2=O)cc1 (stereo not drawn)", "HT29 colon", ">", 100],
  ["O=C1C=CC(=O)c2c(O)c(N3CCOCC3)c(Cl)c(O)c21", "HT29 colon", "=", 0.586],
  ["O=c1[nH]cc(N=Cc2cc(Cl)ccc2O)c(=O)[nH]1", "HT29 colon", ">", 100],
  ["COc1ccc(/C=C2\\CCCc3ccccc3C2=O)cc1", "HT29 colon", "=", 14.6],
  ["O=C1C=CC2(O[C@H](C3CCCCC3)[C@@H](C3CCCCC3)O2)C(SC(=O)c2ccccc2)C1 (stereo partly drawn)", "HT29 colon", "=", 3.85],
  ["O=C1c2ccncc2C(=O)c2c(O)ccc(O)c21", "HT29 colon", "=", 7.74],
  ["Cn1c2ccc(Cl)cc2c2ccc3c(c21)C(=O)C=CC3=O", "HT29 colon", ">", 10],
  ["CC(c1ccccc1)n1cncc1C(=O)NN1CCN(C)CC1 (stereo not drawn)", "HT29 colon", ">", 10],
  ["O=C1Nc2cccc(Cl)c2/C1=C\\c1c(-c2ccccc2)nc2n1CCS2", "HT29 colon", "=", 42.5],
  ["CC(/C=C/C(=O)c1sc(C(N)=S)nc1C)=C\\c1ccccc1", "HT29 colon", ">", 100],
  ["Oc1ccc(Cl)cc1-c1cc(-c2ccccc2)nc(=S)[nH]1", "HT29 colon", ">", 100],
  ["CC1CCCC(C#N)(NOC2=NCCN2)C1 (stereo not drawn)", "HT29 colon", ">", 100],
  ["COc1ccc(C2NN=C3c4ccccc4CCC32)cc1 (stereo not drawn)", "HT29 colon", "=", 12.5],
  ["COC(=O)/C(C#N)=C1\\CCC(OC)N1C (stereo not drawn)", "HT29 colon", ">", 100],
  ["CCCCC#Cc1c(I)n(C2OC(CO[Si](C)(C)C(C)(C)C)C3OC(C)(C)OC32)c(=O)n(C(=O)c2ccccc2)c1=O (stereo not drawn)", "HT29 colon", ">", 100],
  ["C/C(=C\\Cc1ccc(F)cc1)CCCCCC/C(C)=C/Cc1ccc(F)cc1", "HT29 colon", "=", 33.3],
  ["CC(=O)OCC1OC(SC2=NC(=O)CS2)C(OC(C)=O)C(OC(C)=O)C1OC(C)=O (stereo not drawn)", "HT29 colon", ">", 100],
  ["COC(=O)C1C(=O)CC(C)(O)C(C(=O)OC)C1c1ccc(N(C)C)cc1 (stereo not drawn)", "HT29 colon", ">", 100],
  ["Cc1cc2nc3ccccc3n2c2ccccc12", "HT29 colon", ">", 10],
  ["Cc1cn(C2CC(COCc3ccccc3)N(CCO[Si](C)(C)C(C)(C)C)O2)c(=O)[nH]c1=O (stereo not drawn)", "HT29 colon", "=", 28.7],
  ["C=C(CN(CC)CC)C1(c2ccccc2)CC2(CCCC2)C(=O)O1 (stereo not drawn)", "HT29 colon", "=", 77.9],
  ["NC1CCCCC1NCCNC1CCCCC1N (stereo not drawn)", "HT29 colon", "=", 36],
  ["Cc1ccc(S(=O)(=O)n2cc([C@@]3(O)C[C@H](CSC#N)OC3=O)c3ccccc32)cc1", "HT29 colon", "=", 55]
]}

---

Recorded TGI, one value per entry.
Tested on: RXF 393 renal
Experiment: NCI tumour cell line growth inhibition, 48 h

{"columns": ["compound", "TGI"],
 "data": [
  ["O=C1c2ccccc2C2(c3ccc(F)cc3)NCCN12 (configuration not stated)", "> 100 µM"],
  ["Cc1cc2c(c(C(=O)NCC(=O)O)c1)Oc1c(cc(C)cc1C(=O)NCC(=O)O)S2", "> 100 µM"],
  ["CC(OP(=O)(O)O)C(N)C(=O)O (configuration not stated)", "> 100 µM"],
  ["COc1c(OC)c(OC)c2c(=O)cc(-c3ccc(OC(C)C)cc3)oc2c1OC", "> 48.7 µM"],
  ["CCN(CC)CCCNCc1cc(-c2ccccc2)nc2cc(Cl)ccc12", "7.2 µM"],
  ["CC(C)=Cc1cc(C)c2ccc(C)c3c2c1C(C)=C(O)C3=O", "> 100 µM"],
  ["NC(N)=NC(N)=Nc1ccc(C(=O)O)cc1", "> 100 µM"],
  ["CCOc1ccc2nc3nc(=O)[nH]c(C)c3c(NC(C)(CO)CO)c2c1", "> 100 µM"],
  ["O=c1cc[nH]cc1-c1c[nH]ccc1=O", "> 100 µM"],
  ["O=c1[nH]c2ccccc2c(O)c1/C=N/C(=S)NC1CCCCC1", "> 100 µM"],
  ["Cc1ccc(N2C(=O)C3CSCN3C2=O)cc1 (configuration not stated)", "> 100 µM"],
  ["O=C(Nc1ccc(-n2cc(-c3ccncc3)c(-c3ccc(O)c(Cl)c3)n2)cc1)c1ccc(Cl)c(C(F)(F)F)c1", "1.64 µM"],
  ["c1cc2cc3c4c5c(cc6ccc7cc8cc9c%10c8c8c7c6c5c8c5c%10c(c1C9N1CCOCCOCCOCCOCCOCC1)c2c45)C3 (configuration not stated)", "> 100 µM"],
  ["CS(=O)(=O)c1ccc(COP(N)(=O)N(CCCl)CCCl)cc1 (configuration not stated)", "> 100 µM"],
  ["[N-]=[N+]=Nc1nc2ccccc2c(N=[N+]=[N-])c1Cl", "> 100 µM"],
  ["CN(C)CCN1C(=O)c2cccc3c(/C=C/CN4C(=O)c5cccc6cccc(c56)C4=O)ccc(c23)C1=O", "> 100 µM"],
  ["CC(CCc1nc2ccccc2s1)(c1ccc(O)cc1)c1ccc(O)cc1", "33.2 µM"],
  ["O=c1[nH]cc(N=Cc2cc(Cl)ccc2O)c(=O)[nH]1", "> 100 µM"],
  ["Cc1cc(C)c2c(c1)C/C(=C\\c1cccc(C)c1C(=O)O)C2=O", "> 100 µM"],
  ["Nc1nc(Cl)nc2c1ncn2C1OC(CO)C(O)C1F (configuration not stated)", "> 100 µM"],
  ["CSc1nnc(SCc2nn3c(=O)cc(C)nc3s2)s1", "> 100 µM"],
  ["CN1CCN=C1c1nnn(-c2ccc([N+](=O)[O-])cc2)c1-c1ccccc1", "> 100 µM"]
]}
